Measured PBM binding z-score by item
tested on: THRa homodimer (NR concentration 90 nM); assay: PBM binding z-score (relative to random genomic background probes); higher = stronger binding; sequences stand for … in GC…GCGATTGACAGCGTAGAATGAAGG
Answer as a number with no unit attached.

Example entries and their recorded answers appear below.
GCTAGTTGGTCAGTGAAAGGTCACACACCGGTCG : 1.71
GCGACTGGGGCAAAGGAGGTTACCATAAGGTTGG : 0.609
CCTACTGGGCCAAAGCTCATTGATTCCAATGCTC : -0.358
CGAACTAGGTCATGGACAGTGAATCTCCGCACGC : 1.16
CATACAGGGGCAGCTAGGCCAGAGTAGGGACGGC : -0.63

// next entry
Noted for `CCAAACAGGTGAAAGGTAACTCAGTCTGGTACGC` : its PBM binding z-score reads 0.0389

----------
tested on: RARa homodimer (NR concentration 270 nM); assay: PBM binding z-score (relative to random genomic background probes); higher = stronger binding; sequences stand for … in GC…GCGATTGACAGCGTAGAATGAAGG
Recorded PBM binding z-score values for a group of sequences are listed next.

Answered examples (2):
TCAAACAGGTGAAGGTAACTCAGGTACGCAGTCG : 0.552
TCGTATAGGTAAATGCTAGGTGAAAGTCCGATCT : 0.867

What the record says about `AGTCAAAGTTCACTAGGTAATGTAAGATTCAGCT` : PBM binding z-score is 1.29

PBM binding z-score for `CCTAGCAGGCCAGGGTCACTCGAGCATTTCGCTT` is -0.646

----------
tested on: RARb homodimer (NR concentration 270 nM); experiment: PBM binding z-score (relative to random genomic background probes); higher = stronger binding; sequences stand for … in GC…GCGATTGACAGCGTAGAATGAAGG
measurementKind: PBM binding z-score
I only need the number, thanks.

Solved cases (5 shown):
TCTTGTGGATCAATAGAGGTTAAGAAAGTGCGCT : 1.26
TCATATAGGTAAATGCTAGGTGAAATTCCGATCT : 0.107
CCAACTAGGTCACAGAGGTCAAAGTCCGTGCGTA : 5.91
ATAACGAGGGCACGCTGAGTTGATAGCAGAGTAG : 1.27
ATCCAAAGGTCGACGAGGTGAGTATACACCGTTT : 3.09

Sure, the documented PBM binding z-score for `CGAACTAGGTCATCCAGGACATTGAATACATTGA` is 3.11

The sequence listed as `GTACCAAGGTGAATAGGTCCTTGATGAGTAGGCG` has a reported PBM binding z-score of 0.586

----------
system: RARa homodimer (NR concentration 270 nM); test: PBM binding z-score (relative to random genomic background probes); higher = stronger binding; sequences stand for … in GC…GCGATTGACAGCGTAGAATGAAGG
Reported PBM binding z-score values follow for various sequences
Returns: the value as a bare number; no unit string appended.

TCATATATGTAAAAGGTGAAAGTCGGTGTGGTAA : 1.14
TTACCAAGGAGAGCTGAGGTCGTTGATCCAACTC : -0.664

The recorded PBM binding z-score for entry `ACAGAGAGGTGATGAAGGTAACTCAGGCTATCAT` equals 0.478

Noted for `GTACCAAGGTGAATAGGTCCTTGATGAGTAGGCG` : its PBM binding z-score reads 0.144

Please fill in: PBM binding z-score reported for `CCTAGTTGGTCAAGGTCACACAAGCTATAGGTAC` = 2.77
